Quantity Name: melting point

{"Molecule": "C=CCc1cc2c(c(CC=C)c1O)CCC(=O)N2CCCn1cnnc1", "Result": "129 to 132 °C"}
{"Molecule": "O=C(Nc1cc(Cl)cc(Cl)c1)c1ccccc1SSc1ccccc1C(=O)Nc1cc(Cl)cc(Cl)c1", "Result": "235 to 236 °C"}
{"Molecule": "COc1cc2cc(CO)nc(-c3ccc([N+](=O)[O-])cc3)c2cc1OC", "Result": "260 to 263 °C"}
{"Molecule": "CNC(=O)c1cc(-n2cnn(Cc3ccc(F)cc3)c2=O)n[nH]1", "Result": "268 to 269 °C"}
{"Molecule": "N#Cc1cccc(C(Oc2ccccc2)Oc2ccccc2)n1", "Result": "82 to 85 °C"}
{"Molecule": "COc1ccc(CC(C)NC(=O)C(F)(F)F)cc1 (stereo unspecified)", "Result": "100 to 102 °C"}

====

{"Compound": "Cn1c(Sc2ccccc2)c(C=NO)c(=O)n(C)c1=O", "melting point": "152 °C"}
{"Compound": "C[C@@H]1CNC[C@H](C)N1Cc1ccc(COc2cccc3c2CN(C2CCC(=O)NC2=O)C3=O)cc1 (some centres undefined)", "melting point": "253 to 255 °C"}
{"Compound": "CC1=CC(OC(=O)c2ccc([N+](=O)[O-])cc2)C(O)C(C)(C)CC1=O (centres undefined)", "melting point": "151 to 152 °C"}
{"Compound": "O=C(CS(=O)C(c1ccc(F)cc1)c1ccc(F)cc1)NO (centres undefined)", "melting point": "90 to 91 °C"}

====

melting point values, listed per item

{"Compound": "O=C1c2ccccc2C(=O)N1c1cc(CCl)ccn1", "melting point": "152 to 153 °C"}
{"Compound": "CCCNC(=O)Nc1ccc(-c2cn3c(n2)C(OC2CCN(C)CC2)c2ccccc2CC3)cc1 (centres undefined)", "melting point": "130 °C"}
{"Compound": "Cc1nc2cc(C34CC5CC(CC(C5)C3)C4)cc(-c3ccc(C=C4SC(=S)NC4=O)cc3)c2o1", "melting point": "> 360 °C"}
{"Compound": "COc1ccc2cc(C(C)C(=O)OCC(=O)NCCCO[N+](=O)[O-])ccc2c1 (centres undefined)", "melting point": "51 to 53 °C"}
{"Compound": "CNC(=O)C(=NOC)c1ccccc1COc1ncc(Br)cc1C", "melting point": "115 to 116 °C"}
{"Compound": "CCCCCCC1(CCCCCC)c2cc(C#N)ccc2-c2ccc(C#N)cc21", "melting point": "116 to 118 °C"}
{"Compound": "Cc1nc2c(O[C@@H]3c4ccccc4C[C@H]3OS(C)(=O)=O)cccn2c1C=O (relative stereo)", "melting point": "158 to 160 °C"}
{"Compound": "C=Cc1cc(C)cc(C)c1CC(=O)N(C)C1(C(=O)OC)CCN(OC)CC1", "melting point": "160 to 162 °C"}
{"Compound": "CCCCCCCCCCCCCCCC(=O)Nc1ccc(C(=O)O)cc1C", "melting point": "194 to 196 °C"}
{"Compound": "COc1cc2nccc(N3CCN(C(=O)Nc4ccc(Oc5ccccc5)cc4)CC3)c2cc1OC", "melting point": "204 to 206 °C"}
{"Compound": "CC1(C)CON(Cc2cc(N3C(=O)C4=C(CCCC4)C3=O)c(F)cc2Cl)C1=O", "melting point": "136 to 138 °C"}
{"Compound": "Cn1c(C(F)(F)F)cc(=O)n(-c2ccc3snc(C4SCCS4)c3c2)c1=O", "melting point": "227 to 232 °C"}
{"Compound": "COc1nc2cc([N+](=O)[O-])c(C)c(C(=O)N(C)C)c2nc1OC", "melting point": "138 to 141 °C"}
{"Compound": "N#Cc1ccc(NS(=O)(=O)c2ccc(Cl)cc2)c([N+](=O)[O-])c1", "melting point": "193 to 195 °C"}
{"Compound": "CC1(C)OCc2cccc(Cc3c[nH]cn3)c2O1", "melting point": "160 to 170 °C"}
{"Compound": "CC(C)(C)OC(=O)C(CCC(N)=O)N1Cc2c(OCc3ccc(CN4C5CCC4COC5)cc3)cccc2C1=O (centres undefined)", "melting point": "243 to 245 °C"}
{"Compound": "CCCSc1cscc1S(=O)(=O)NC(C)(C)C", "melting point": "61 to 63 °C"}
{"Compound": "COc1ccc2[nH]cc(C3=CCC4(CC3)OCCO4)c2c1", "melting point": "161 to 162 °C"}
{"Compound": "CC1CCC(N(CC2CCC(CN(C(=O)Nc3ccc(N4CCCCC4)cc3)C3CCC(C)CC3)CC2)C(=O)Nc2ccc(N3CCCCC3)cc2)CC1 (centres undefined)", "melting point": "161 to 165 °C"}
{"Compound": "CCCCOc1ccc(Nc2cc(Nc3ccc4c(c3)OCCO4)c(F)cn2)cc1", "melting point": "133 to 135 °C"}
{"Compound": "C[C@H]1N(C(=O)c2ccc(C(F)(F)F)cc2)CC(F)O[C@@]1(Cn1cncn1)c1ccc(Cl)cc1Cl (relative stereo)", "melting point": "151 to 156 °C"}
{"Compound": "COc1cc(CSCCC(=O)SCc2cc(OC)c(OC)c(OC)c2)cc(OC)c1OC", "melting point": "88 to 89 °C"}
{"Compound": "COCc1c(C(=O)OC(C)C)ncc2c1c1c(OCc3ccccc3)cccc1n2CC(=O)N(C)Cc1ccccc1", "melting point": "155 to 157 °C"}
{"Compound": "O=C(O)Cc1cc(=O)n(Cc2ccc([N+](=O)[O-])cc2)c2ccccc12", "melting point": "208 to 210 °C"}
{"Compound": "Cc1cccc2c(C(F)(F)F)c(O)ccc12", "melting point": "83 to 84 °C"}
{"Compound": "Cc1cc(C#N)cc(C(=O)c2nc(OCc3ccccc3)nc(OCc3ccccc3)c2C(C)C)c1", "melting point": "129 to 130 °C"}
{"Compound": "CCCN(CCC)C1CCC2=C(CC(OC)=CC2)C1 (centres undefined)", "melting point": "47 to 51 °C"}
{"Compound": "CCOC(=O)c1c(N2CCN(C(=O)c3cccs3)CC2)c2cccnc2n(Cc2ccccc2F)c1=O", "melting point": "105 to 110 °C"}
{"Compound": "CNC(=O)c1cc(OC)c(C(=O)NC)c(NC(=O)CCl)c1OC", "melting point": "228 to 229 °C"}

Cited source for all entries: a melting point compilation (Tetko et al.; mined from patent text by program, amines drawn as free bases though some values may be those of a salt)
